B1: SMG5 (parent)
chain: FVSIAQSEQESLLQQAQAQFRMAQ

Variants of: B1
Assay info: protein stability index of a GFP-peptide fusion (GPS, HEK-293T) (PSI 1-6); higher = more stable;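 also: lentivirally expressed fusions sorted by FACS into six bins by GFP to DsRed ratio, PSI derived from sequencing read proportions per bin multiplied by bin number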
Test conditions: c terminus: a fixed tail appended
// FALSE strictly below 2 in protein stability index; TRUE otherwise

- FVNIAQSEQESLLQQAQAQFRMAQ [S3N]: FALSE
- FVSIAQSEQEVLLQQAQAQFRMAQ [S11V]: FALSE
- FVSIAQSEQESMLQQAQAQFRMAQ [L12M]: TRUE
- FVSIAQSEQESLLQQAQAQFIMAQ [R21I]: FALSE
- FVSIAQSEQESLLQQAQAQFRSAQ [M22S]: TRUE
- FVSICQSEQESLLQQAQAQFRMAQ [A5C]: FALSE
- FVSIAQSEQESLLQQAQAQKRMAQ [F20K]: TRUE
- FPSIAQSEQESLLQQAQAQFRMAQ [V2P]: TRUE
- FVSIAQSEQESLLQQYQAQFRMAQ [A16Y]: FALSE
- FVSIAQSEQESLLQIAQAQFRMAQ [Q15I]: TRUE
- FVSIAQGEQESLLQQAQAQFRMAQ [S7G]: TRUE
- FGSIAQSEQESLLQQAQAQFRMAQ [V2G]: TRUE
- FVSIAQSEQESLLQQWQAQFRMAQ [A16W]: FALSE
- FVSIAQSEQESLLQQAQAQFEMAQ [R21E]: TRUE
- FVSIAQSEQESLLQQAQWQFRMAQ [A18W]: FALSE
- FVSIVQSEQESLLQQAQAQFRMAQ [A5V]: FALSE
- FVSIAQSEQLSLLQQAQAQFRMAQ [E10L]: TRUE
- FVSIAQSEQESLLQQQQAQFRMAQ [A16Q]: TRUE
- FVSIAQHEQESLLQQAQAQFRMAQ [S7H]: TRUE
- FVSIAQSEQESLLQQAQACFRMAQ [Q19C]: FALSE
- FVSIAQSEQESLLQKAQAQFRMAQ [Q15K]: TRUE
